- TESTED SYSTEM: 5-HT1A S199A (Homo sapiens, UniProt P08908, S199A)
- ASSAY METHOD TEXT: cell-based
- DETAILS: EC50, Goa
MEASURED ATTRIBUTE: EC50 (nM)
Number only, in nM; omit the unit.

The measured EC50 associated with CN1CC2c3ccccc3Oc3ccc(Cl)cc3C2C1 (stereo not shown) reads 6.84

----------
- TESTED SYSTEM: 5-HT1A (Homo sapiens, UniProt P08908)
- Sequence (P08908 1-422): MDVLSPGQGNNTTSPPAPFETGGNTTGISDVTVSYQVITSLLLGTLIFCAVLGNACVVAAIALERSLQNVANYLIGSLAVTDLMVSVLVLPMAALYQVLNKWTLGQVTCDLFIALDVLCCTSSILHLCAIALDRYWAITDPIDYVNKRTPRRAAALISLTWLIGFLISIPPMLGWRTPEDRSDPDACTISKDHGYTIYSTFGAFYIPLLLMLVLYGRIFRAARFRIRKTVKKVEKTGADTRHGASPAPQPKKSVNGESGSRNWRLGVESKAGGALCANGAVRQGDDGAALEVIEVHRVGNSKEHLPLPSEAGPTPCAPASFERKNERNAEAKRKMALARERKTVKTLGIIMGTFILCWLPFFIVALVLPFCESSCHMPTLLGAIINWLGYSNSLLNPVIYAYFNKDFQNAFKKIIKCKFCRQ
- ASSAY METHOD TEXT: BRET Goa activation at WT 5-HT1A
MEASURED ATTRIBUTE: pEC50
Convention used: pEC50 is expressed as -log10 of the molar concentration.

The observed pEC50 for CN1CC2c3ccccc3Oc3ccc(Cl)cc3C2C1 (stereo not shown) [Asenapine] when tested with 5-HT1A (Homo sapiens, UniProt P08908) stands at 8.04
